Each item that follows carries a reported inhibition at 10 µg/mL.
# Test system: Hepatitis B virus
# test-name: Antiviral activity against HBV infected in human HepG2(2.2.15) cells assessed as inhibition of viral replication at 10 ug/ml […] relative to control
# Type: functional
# study-conditions: HepG2 2.2.15, 48 h
quantity-measured: inhibition at 10 µg/mL

INSERT INTO assay_data (sample_smiles, quantity_measured, val) VALUES
  ('Cc1cn([C@@H]2O[C@H](CO)[C@@H](F)[C@H]2F)c(=O)[nH]c1=O', 'inhibition at 10 µg/mL', '0%'),
  ('O=c1ccn([C@@H]2O[C@H](CO)[C@@H](F)[C@H]2F)c(=O)[nH]1', 'inhibition at 10 µg/mL', '0%'),
  ('O=c1[nH]c(=O)n([C@H]2C[C@H](F)[C@@H](CO)O2)cc1I', 'inhibition at 10 µg/mL', '60%');

Measured values drawn from ChEMBL document CHEMBL1268901 for this set.
